Test system: HCV genotype 1b replicon with NS5A L31V mutation
Assay Name: Transiently transfected assay of genotype 1b resistance mutant RNA L31V
Format: cell-based
Particulars: Hepatitis C virus, Huh-7.5.1, 72 h, read-out: HCV Mutation L31V
pEC50: −log10 of the molar value.
// pEC50 lookup, one value per entry

// solved cases for pEC50 follow
CCCCC1(CCCC)c2cc(NC(=O)[C@@H]3CC4(CC4)CN3C(=O)[C@H](NC(=O)OC)c3ccccc3)ccc2-c2ccc(NC(=O)[C@@H]3CC4(CC4)CN3C(=O)[C@H](NC(=O)OC)c3ccccc3)cc21 | 10.00 to 11.00
CCCCC1(CCCC)c2cc(NC(=O)[C@@H]3C[C@@H](OC(=O)C(C)C)CN3C(=O)[C@H](NC(=O)OC)c3ccccc3)ccc2-c2ccc(NC(=O)[C@@H]3C[C@@H](OC(=O)C(C)C)CN3C(=O)[C@H](NC(=O)OC)c3ccccc3)cc21 | 10.00 to 11.00

Retrieve pEC50 measured for CCCCC1(CCCC)c2cc(NC(=O)[C@@H]3CC(F)(F)CN3C(=O)[C@H](NC(=O)OC)c3ccccc3)ccc2-c2ccc(NC(=O)[C@@H]3CC(F)(F)CN3C(=O)[C@H](NC(=O)OC)c3ccccc3)cc21 and print it.
10.00 to 11.00
